Experiment: refractive index (Na D-line) (dimensionless); xn = mol fraction of the nth substance listed
Settings: 288.15 K; 101 kPa; Liquid; Standard Abbe refractometry; x1 = 0.6
TEST READOUT: refractive index
Respond using a number only.

Look over these answered cases.
> print(dat)
                                   compound  result.value
1  C=C[Si](C)(C)O[Si](C)(C)C=C [1,3-diethenyl-1,1,3,3-tetramethyldisiloxane] + Clc1ccccc1       1.44268
2  C=C[Si](C)(C)O[Si](C)(C)C=C [1,3-diethenyl-1,1,3,3-tetramethyldisiloxane] + CCc1ccccc1       1.43779
3  C=C[Si](C)(C)O[Si](C)(C)C=C [1,3-diethenyl-1,1,3,3-tetramethyldisiloxane] + COc1ccccc1       1.44188

Let's switch to this compound now.
Enquiry: Give refractive index for C=C[Si](C)(C)O[Si](C)(C)C=C [1,3-diethenyl-1,1,3,3-tetramethyldisiloxane] + Fc1ccccc1
Return: 1.42721
